Tested on: LS-411N
protocol.details: Cell viability assay (Cell Titer-Glo), LS-411N
Assay type: cell-based
condition.label: Homo sapiens, carcinoma, BRAF V600E, read-out: Ganetespib IC50
Experimental: Cell viability was measured using the Cell Titer-Glo assay (Promega). In brief, cells were plated in 96-well plates in triplicate at optimal seeding density (determined empirically for each cell line) and incubated at 37° C., 5% CO2 atmosphere for 24 hr prior to the addition of drug or vehicle (0.3% DMSO) to the culture medium. At the end of the assay, Cell Titer-Glow was added to the wells per manufactures recommendation, shaken for two minutes and incubated for 10 minutes at room temperature. […]
pIC50: −log10 of the molar value.
endpoint.name: pIC50

molecule: CC(C)c1cc(-c2nnc(O)n2-c2ccc3c(ccn3C)c2)c(O)cc1O [Ganetespib]
endpoint.name: pIC50
quantitative.readout: 8.30

----------
Tested on: SW982
protocol.details: Cell viability assay (Cell Titer-Glo), SW982
Type: cell-based
condition.label: Homo sapiens; SW982, synovial sarcoma, BRAF V600E; read-out: Ganetespib IC50

entry.smiles: CC(C)c1cc(-c2nnc(O)n2-c2ccc3c(ccn3C)c2)c(O)cc1O
readout.units: nM
IC50: 10

----------
Test system: SW872
protocol.details: Cell viability assay (Cell Titer-Glo), SW872
Assay type: cell-based
condition.label: Homo sapiens; SW872, liposarcoma, BRAF V600E; read-out: Ganetespib IC50
pIC50: −log10 of the molar value.

compound: CC(C)c1cc(-c2nnc(O)n2-c2ccc3c(ccn3C)c2)c(O)cc1O [Ganetespib]
pIC50: 7.66

----------
System: MMAC-SF
protocol.details: Cell viability assay (Cell Titer-Glo), MMAC-SF
Format: cell-based
condition.label: Homo sapiens, malignant melanoma, BRAF V600E, read-out: Ganetespib IC50
endpoint.name: IC50 (nM)

entry.smiles: CC(C)c1cc(-c2nnc(O)n2-c2ccc3c(ccn3C)c2)c(O)cc1O
system.under.test: MMAC-SF
endpoint.name: IC50
quantitative.readout: 31
